biological target: LMHT gp120CRF01_AE coree (Human immunodeficiency virus type 1, UniProt Q0ED31, DEL123-198/DEL305-311/DEL316-323/H375T/H60Y/I469M/K470R/N199G/N304G/N468D/P313S/Q104H/Q315S/T200G/V107I); experiment: biochemical
pIC50: −log10 of the molar value.

MOLECULE: NCCNC(=O)N1CCC[C@H](C(=O)Nc2ccc(Cl)c(F)c2)C1 [MCG-IV-210, reference compound]
pIC50: 6.01
--
MOLECULE: O=C(O)CN1CCN(C(=O)N2C[C@H](CO)C[C@H](C(=O)Nc3ccc(Cl)c(F)c3)C2)CC1 (racemic)
pIC50: 6.25
--
MOLECULE: NCC(=O)N1CCN(C(=O)N2C[C@H](CO)C[C@H](C(=O)Nc3ccc(Cl)c(F)c3)C2)CC1 (racemic)
pIC50: 6.51

* * *

tested on: VSV-G pseudovirus; assay: microbe, parasite or virus in culture; format: cell-based; conditions: TZM-bl, read-out: Viral neutralization IC50, VSV-G Pseudovirus

COMPOUND: NCC(=O)N1CCN(C(=O)N2C[C@H](CO)C[C@H](C(=O)Nc3ccc(Cl)c(F)c3)C2)CC1 (racemic)
IC50: > 100 µM
--
COMPOUND: CC1CN(C(=O)N2CCCC(C(=O)Nc3ccc(Cl)c(F)c3)C2)CC(C)N1C (centres unmarked) [TFH-I-116-D1]
IC50: > 100 µM
--
COMPOUND: CN1CCN(C(=O)N2C[C@H](CN)C[C@H](C(=O)Nc3ccc(Cl)c(F)c3)C2)CC1
IC50: > 100 µM
--
COMPOUND: O=C(O)CN1CCN(C(=O)N2C[C@H](CO)C[C@H](C(=O)Nc3ccc(Cl)c(F)c3)C2)CC1 (racemic)
IC50: > 100 µM
--
COMPOUND: NCCNC(=O)N1CCC[C@H](C(=O)Nc2ccc(Cl)c(F)c2)C1 [MCG-IV-210, reference compound]
IC50: > 100 µM
--
COMPOUND: CN1CCN(C(=O)N2CCC[C@H](C(=O)Nc3ccc(Cl)c(F)c3)C2)CC1
IC50: > 100 µM
--
COMPOUND: CNCc1ccc2c(c1)C[C@H](CNC(=N)N)[C@H]2NC(=O)C(=O)Nc1ccc(Cl)c(F)c1 [BNM-III-170, reference compound]
IC50: > 100 µM
--
COMPOUND: C[C@@H]1CN(C(=O)N2C[C@H](CN)C[C@H](C(=O)Nc3ccc(Cl)c(F)c3)C2)C[C@H](C)N1C
IC50: > 100 µM

* * *

system: HIV-1AD8-infected primary CD4+ T cells; experiment: HIV+ plasma cell-surface staining of infected cells; assay type: cell-based, human; settings: 50µM compound; plasma 1:1000
METRIC: HIV+ plasma binding (recognition of infected cells), HIV-1AD8

COMPOUND: CC1CN(C(=O)N2CCCC(C(=O)Nc3ccc(Cl)c(F)c3)C2)CC(C)N1C (stereo not shown) [TFH-I-116-D1]
VALUE_MEASURED: did
//
COMPOUND: NCC(=O)N1CCN(C(=O)N2C[C@H](CO)C[C@H](C(=O)Nc3ccc(Cl)c(F)c3)C2)CC1 (racemic) [DL-I-101]
VALUE_MEASURED: did
//
COMPOUND: CN1CCN(C(=O)N2CCC[C@H](C(=O)Nc3ccc(Cl)c(F)c3)C2)CC1 [TFH-I-070-A6]
VALUE_MEASURED: did
